# Tested on: human IL-6 (human, UniProt P05231 30-212)
# Sequence (P05231 30-212 limits assumed): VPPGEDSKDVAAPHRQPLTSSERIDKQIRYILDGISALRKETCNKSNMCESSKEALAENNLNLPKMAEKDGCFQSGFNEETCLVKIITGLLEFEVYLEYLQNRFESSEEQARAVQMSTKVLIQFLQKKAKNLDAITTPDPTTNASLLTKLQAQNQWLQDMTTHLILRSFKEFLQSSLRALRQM
# Experimental protocol: SPR Biacore, purified, Protein A capture, 37 C
Measured metric: kon (M⁻¹ s⁻¹)
Kindly answer with a numeric value in M⁻¹ s⁻¹, unit omitted.

Which kon value belongs to Anti-IL-6 antibody, heavy chain S35H, G66D, L100S / light chain M32L, M50D, N52S, M88Q (antibody, IgG1, V domains shown, IgG1; variable domains only; VL is variant III) VH: EVQLVESGGGLVQPGGSLRLSCAASGFTFSPFAMHWVRQAPGKGLEWVAKISPGGSWTYYSDTVTDRFTFSLDTSKSTAYLQMNSLRAEDTAVYYCARQSWGYYALDIWGQGTLVTVSS VL: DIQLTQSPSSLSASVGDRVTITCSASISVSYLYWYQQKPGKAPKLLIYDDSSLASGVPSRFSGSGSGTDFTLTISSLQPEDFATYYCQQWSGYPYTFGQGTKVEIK ? 3.61e+06

Which kon value belongs to Anti-IL-6 antibody, heavy chain S35H, G66D, L100A / light chain M32L, M50D, N52S, M88Q (antibody, IgG1, V domains shown, IgG1; variable domains only; VL is variant III) VH: EVQLVESGGGLVQPGGSLRLSCAASGFTFSPFAMHWVRQAPGKGLEWVAKISPGGSWTYYSDTVTDRFTFSLDTSKSTAYLQMNSLRAEDTAVYYCARQAWGYYALDIWGQGTLVTVSS VL: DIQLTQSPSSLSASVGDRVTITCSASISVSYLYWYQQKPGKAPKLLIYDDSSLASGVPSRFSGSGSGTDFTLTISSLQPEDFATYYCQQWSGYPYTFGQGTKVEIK ? 3.72e+06

Which kon value belongs to Anti-IL-6 antibody, heavy chain S35H, G66D, L100T / light chain M32L, M50D, N52S, M88Q (antibody, IgG1, V domains shown, IgG1; variable domains only; VL is variant III) VH: EVQLVESGGGLVQPGGSLRLSCAASGFTFSPFAMHWVRQAPGKGLEWVAKISPGGSWTYYSDTVTDRFTFSLDTSKSTAYLQMNSLRAEDTAVYYCARQTWGYYALDIWGQGTLVTVSS VL: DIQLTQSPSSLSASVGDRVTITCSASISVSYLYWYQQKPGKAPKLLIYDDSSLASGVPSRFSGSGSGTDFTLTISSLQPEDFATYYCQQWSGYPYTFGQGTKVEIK ? 1.83e+06
